# Lookup of reported viability, T/C keyed by entry
- Tested on: 485368-065-R4-J2-PDC spheroids with HUVEC/MSC, viability
- testDescription: Anticancer human tumor 485368-065-R4-J2-PDC patient-derived pancreatic carcinoma cell line growth inhibition [CLK]
- assayContext: second compound 0.1 µM; first compound 10 µM; hits give low values
Hi! Could you send only the number? It should be in %, unit omitted.

viability, T/C in this record for CC(CO)NC(=O)c1cc(-c2ccc(Cl)cc2)nn(-c2cnn(C)c2)c1=O (stereo unspecified) + CN1CCN(c2cc(C(=O)Nc3cc4cc(-c5cnn(C)c5)ccc4cn3)ccn2)CC1 : 99.3

Kindly note the recorded viability, T/C for O=c1[nH]cc(F)c(=O)[nH]1 + CNC(=O)c1ccc(Nc2nc(OC3CCCC3)c3c(-c4ccc5nc(C)oc5c4)c[nH]c3n2)c(OC)c1 , which is 82.3

compound C=C(F)C(=O)N1CCN(c2nc(OCC3CCCN3C)nc3c2CCN(c2cccc4cccc(Cl)c24)C3)CC1CC#N (stereo unspecified) + CN1CCN(c2cc(C(=O)Nc3cc4cc(-c5cnn(C)c5)ccc4cn3)ccn2)CC1 , viability, T/C observed: 95.3

Entry COc1cccc2c1C(=O)c1c(O)c3c(c(O)c1C2=O)CC(O)(C(=O)CO)CC3OC1CC(N)C(O)C(C)O1 (stereo unspecified) + CN1CCN(c2cc(C(=O)Nc3cc4cc(-c5cnn(C)c5)ccc4cn3)ccn2)CC1 ; viability, T/C = 20.2

Lookup result for CC(Nc1ccc2c(c1)OCCn1cc(N3C(=O)OCC3C(F)F)nc1-2)C(N)=O (stereo unspecified) + CN1CCN(c2cc(C(=O)Nc3cc4cc(-c5cnn(C)c5)ccc4cn3)ccn2)CC1 ; measured viability, T/C: 53.4

Recorded result, O=C(c1cc(Cc2n[nH]c(=O)c3ccccc23)ccc1F)N1CCN(C(=O)C2CC2)CC1 + CNC(=O)c1ccc(Nc2nc(OC3CCCC3)c3c(-c4ccc5nc(C)oc5c4)c[nH]c3n2)c(OC)c1 , viability, T/C: 86.1

---

- Tested on: 485368-065-R4-J2-PDC spheroids with HUVEC/MSC, viability
- testDescription: Anticancer human tumor 485368-065-R4-J2-PDC cell line growth inhibition [CLK];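 further: spheroids exposed to compounds for seven days; 100% = DMSO vehicle control wells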
- assayContext: second compound 0.1 µM; first compound 10 µM; hits give low values
propertyLabel: viability, T/C (%)
Form entry: value (%) — number only.

// recorded viability, T/C for CCCS(=O)(=O)Nc1ccc(F)c(C(=O)c2c[nH]c3ncc(-c4ccc(Cl)cc4)cc23)c1F + CN1CCN(c2cc(C(=O)Nc3cc4cc(-c5cnn(C)c5)ccc4cn3)ccn2)CC1 : 94.5

---

Catalogue of compounds with associated viability, T/C
- Test system: 485368-065-R4-J2-PDC spheroids with HUVEC/MSC, viability
- testDescription: Anticancer human tumor 485368-065-R4-J2-PDC cell line growth inhibition [CLK];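 further: spheroids exposed to compounds for seven days; 100% = DMSO vehicle control wells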
- assayContext: second compound 0.0316 µM; first compound 0.1 µM; hits give low values
Give the value in % but do not write % after it.

| compound | targetOfAssay | viability, T/C / % |
| --- | --- | --- |
| C=C(F)C(=O)N1CCN(c2nc(OCC3CCCN3C)nc3c2CCN(c2cccc4cccc(Cl)c24)C3)CC1CC#N (centres undefined) + CNC(=O)c1ccc(Nc2nc(OC3CCCC3)c3c(-c4ccc5nc(C)oc5c4)c[nH]c3n2)c(OC)c1 | 485368-065-R4-J2-PDC spheroids with HUVEC/MSC, viability | 105 |
| COc1ccc([C@@H](O)c2cc(-c3ncnc4cc(N5CCOCC5)ccc34)c(F)cc2Cl)nn1 + CN1CCN(c2cc(C(=O)Nc3cc4cc(-c5cnn(C)c5)ccc4cn3)ccn2)CC1 | 485368-065-R4-J2-PDC spheroids with HUVEC/MSC, viability | 109 |
| COC1C=CCC(C)C(C)S(=O)(=O)NC(=O)c2ccc3c(c2)N(CC2CCC21)CC1(CCCc2cc(Cl)ccc21)CO3 (centres undefined) + CNC(=O)c1ccc(Nc2nc(OC3CCCC3)c3c(-c4ccc5nc(C)oc5c4)c[nH]c3n2)c(OC)c1 | 485368-065-R4-J2-PDC spheroids with HUVEC/MSC, viability | 82.8 |
| CC1COCCN1c1cc(C2(S(C)(=N)=O)CC2)nc(-c2ccnc3[nH]ccc23)n1 (centres undefined) + CNC(=O)c1ccc(Nc2nc(OC3CCCC3)c3c(-c4ccc5nc(C)oc5c4)c[nH]c3n2)c(OC)c1 | 485368-065-R4-J2-PDC spheroids with HUVEC/MSC, viability | 96 |
| O=C(c1cc(Cc2n[nH]c(=O)c3ccccc23)ccc1F)N1CCN(C(=O)C2CC2)CC1 + CNC(=O)c1ccc(Nc2nc(OC3CCCC3)c3c(-c4ccc5nc(C)oc5c4)c[nH]c3n2)c(OC)c1 | 485368-065-R4-J2-PDC spheroids with HUVEC/MSC, viability | 101 |

For record Nc1ccccc1NC(=O)c1ccc(CNC(=O)OCc2cccnc2)cc1 + CN1CCN(c2cc(C(=O)Nc3cc4cc(-c5cnn(C)c5)ccc4cn3)ccn2)CC1 the listed viability, T/C is 105

Measured viability, T/C of COc1c(OCCCN2CCOCC2)ccc2c3n(c(=NC(=O)c4cnc(N)nc4)nc12)CCN3 + CNC(=O)c1ccc(Nc2nc(OC3CCCC3)c3c(-c4ccc5nc(C)oc5c4)c[nH]c3n2)c(OC)c1 : 66.1

// viability, T/C value for Nc1ccccc1NC(=O)c1ccc(CNC(=O)OCc2cccnc2)cc1 + CNC(=O)c1ccc(Nc2nc(OC3CCCC3)c3c(-c4ccc5nc(C)oc5c4)c[nH]c3n2)c(OC)c1 : 96.7

// COc1cccc2c1C(=O)c1c(O)c3c(c(O)c1C2=O)CC(O)(C(=O)CO)CC3OC1CC(N)C(O)C(C)O1 (centres undefined) + CN1CCN(c2cc(C(=O)Nc3cc4cc(-c5cnn(C)c5)ccc4cn3)ccn2)CC1 : viability, T/C value = 91.9
